Tgt: HCN1 channels (Mus musculus, UniProt O88704)
Sequence (O88704 74-390 limits assumed): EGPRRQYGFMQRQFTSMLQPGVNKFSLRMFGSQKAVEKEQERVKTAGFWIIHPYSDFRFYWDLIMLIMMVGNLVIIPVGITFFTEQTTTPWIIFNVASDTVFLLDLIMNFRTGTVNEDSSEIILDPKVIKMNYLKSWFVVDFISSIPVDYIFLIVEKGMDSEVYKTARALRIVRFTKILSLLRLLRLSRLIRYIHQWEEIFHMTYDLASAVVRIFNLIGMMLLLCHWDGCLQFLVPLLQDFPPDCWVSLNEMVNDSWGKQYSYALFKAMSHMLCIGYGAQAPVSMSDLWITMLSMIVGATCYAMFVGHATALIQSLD
Test Name: Two electrode voltage clamp of HCN1 channels expressed in Xenopus oocytes (shift in V1/2)
Reported Metric: pEC50
Give bare numbers, as −log10 of the molar value.

Requested read-out pEC50, target or system HCN1 channels (Mus musculus, UniProt O88704), entry CCC(C)c1cccc(C(C)CC)c1O (stereo not shown)
3.43

----------
Tgt: HCN1 channels (Mus musculus)
Test Name: Two electrode voltage clamp of HCN1 channels expressed in Xenopus oocytes (shift in V1/2)
Format: cell-based
Condition Label: relative to propofol (2,6-di-iso-propylphenol)
Reported Metric: potency as HCN1 inverse agonist compared with propofol

compound="CC(C)(C)c1cccc(C(C)(C)C)c1O [2,6-DTBP, 2,6-di-tert-butylphenol]" tgt="HCN1 channels (Mus musculus)" recorded_value="more potent"
compound="CC(C)(C)c1ccc(O)c(C(C)(C)C)c1 [2,4-DTBP, 2,4-di-tert-butylphenol]" tgt="HCN1 channels (Mus musculus)" recorded_value="more potent"
compound="CCC(C)c1ccc(O)c(C(C)CC)c1 (stereo not shown) [2,4-DSBP, 2,4-di-sec-butylphenol]" tgt="HCN1 channels (Mus musculus)" recorded_value="less potent"
compound="CCC(C)c1cccc(C(C)CC)c1O (stereo not shown) [2,6-DSBP, 2,6-di-sec-butylphenol]" tgt="HCN1 channels (Mus musculus)" recorded_value="less potent"
